molecular target: α-syn fibrils (Homo sapiens); assay: Fluorescent properties of ligand-α-syn fibril complex; assay type: physicochemical
Measure name: Fluorescence quantum yield Ligand + α-syn
Answer with a bare number; do not write a unit.

Recorded Fluorescence quantum yield Ligand + α-syn for CN(C)c1ccc(/C=C/C=C2\CCc3ccccc3C2=O)cc1 [compound 24] , please?
0.0668

Returns the measured Fluorescence quantum yield Ligand + α-syn for the input compound. Input: COc1ncc(-c2ccc(/C=C3/Cc4ccccc4C3=O)s2)c(OC)n1 [compound 42]
0.0596

Item CN(C)c1ccc(/C=C/C=C2\Cc3ccccc3C2=O)cc1 [compound 9] has what recorded Fluorescence quantum yield Ligand + α-syn?
0.0805

Request the reported Fluorescence quantum yield Ligand + α-syn associated with COc1cc(/C=C/C=C2C(=O)c3ccccc3C2=O)ccc1O [compound 20]
0.0482

Give its Fluorescence quantum yield Ligand + α-syn value. Item: O=C(O)c1ccc(-c2ccc(/C=C/C=C3\Cc4ccc(O)cc4C3=O)cc2)cc1 [compound 32]
0.1125

What measured Fluorescence quantum yield Ligand + α-syn goes with COc1cc(/C=C/C=C2\Cc3ccccc3C2=O)ccc1O [compound 8] ?
0.078

Using the record for COc1cc(-c2ccc(/C=C/C=C3\Cc4ccccc4C3=O)cc2)ccc1O [compound 29] , report its Fluorescence quantum yield Ligand + α-syn.
0.0766

What value of Fluorescence quantum yield Ligand + α-syn has been reported for the following compound? COc1cc(/C=C/C=C2\CCc3ccccc3C2=O)ccc1O [compound 23]
0.0763

So what's the measured Fluorescence quantum yield Ligand + α-syn for this one? O=C(O)c1ccc(-c2ccc(/C=C/C=C3C(=O)c4ccccc4C3=O)cc2)s1 [compound 35]
0.0878

May I ask what Fluorescence quantum yield Ligand + α-syn has been recorded for COc1cc(-c2ccc(/C=C3/Cc4ccccc4C3=O)s2)ccc1O [compound 39] ?
0.0435
